Target: T1, VACV L1 protein (vaccinia virus, UniProt P07612 1-185)
T1 sequence: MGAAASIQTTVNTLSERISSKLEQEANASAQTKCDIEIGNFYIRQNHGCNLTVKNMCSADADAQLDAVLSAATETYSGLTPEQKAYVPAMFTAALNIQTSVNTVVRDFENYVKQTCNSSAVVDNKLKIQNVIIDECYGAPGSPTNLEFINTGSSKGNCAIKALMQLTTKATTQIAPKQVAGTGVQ
Test: cell-based or functional assay
experimental endpoint: PRNT Emax, VACV MV+C' (%)
Numbers only, in %.

Field request: PRNT Emax, VACV MV+C' | item: MPXV-87 (antibody, V domains shown, human IgG1, anti-L1) V domain 1: QVQLVQSGAEVKKPGASVKVSCKASGYTFTSHGIIWVRQAPGQGLEWMGWISVYNDNTNSAQKFQDRVTMTTATSTSTAYMELRSLRSDDTAVYYCARSSSGPRYYYYGMDVWGQGTTSP V domain 2: QSVVTQPPSVSGAPGQRVTISCTGSSSNIGAGYAVHWYYQLPGIAPKLLIFGNNNRPSGVPDRFSGSKSGTSASLAITGLQAEDEADYYCQSYDSSLSGWVFGGGTQVTVL
72

Source listed as patent US11667697.
